Value source: the supplement of paper PMC10307832

tested on: NCI-H441; assay: relative viability (nuclei count vs DMSO), 5 days (fraction); higher = more cells survive; details: first compound 0.01581 µM
READOUT: relative viability
Reply: number alone, nothing else.

Lookup: API: value(readout=relative viability, system=NCI-H441) for record COc1cc2nccc(Oc3ccc(NC(=O)Nc4cc(C)on4)c(Cl)c3)c2cc1OC [Tivozanib] + CCNC(=O)c1noc(-c2cc(C(C)C)c(O)cc2O)c1-c1ccc(CN2CCOCC2)cc1 [Luminespib] (partner 0.01 µM)
Found: 0.446

Lookup: relative viability of COc1cc2nccc(Oc3ccc(NC(=O)Nc4cc(C)on4)c(Cl)c3)c2cc1OC [Tivozanib] + Cc1cc(Nc2cc(N3CCN(C)CC3)nc(Sc3ccc(NC(=O)C4CC4)cc3)n2)n[nH]1 [Tozasertib] (partner 0.1 µM) on NCI-H441?
Found: 0.635

Lookup: So what relative viability did COc1cc2nccc(Oc3ccc(NC(=O)Nc4cc(C)on4)c(Cl)c3)c2cc1OC [Tivozanib] + O=C(c1cc(Cc2n[nH]c(=O)c3ccccc23)ccc1F)N1CCN(C(=O)C2CC2)CC1 [Olaparib] (partner 8 µM) get with NCI-H441?
Found: 0.531

Lookup: Find relative viability (NCI-H441) for the entry Nc1ccn([C@@H]2O[C@H](CO)[C@@H](O)[C@@H]2O)c(=O)n1 [Cytarabine] + Cc1nc(NC(=O)N2CCC[C@H]2C(N)=O)sc1-c1ccnc(C(C)(C)C(F)(F)F)c1 [Alpelisib] (partner 2 µM)
Found: 0.49

Lookup: Observed relative viability on NCI-H441 for Nc1ccn([C@@H]2O[C@H](CO)[C@@H](O)[C@@H]2O)c(=O)n1 [Cytarabine] + CC(=O)c1c(C)c2cnc(Nc3ccc(N4CCNCC4)cn3)nc2n(C2CCCC2)c1=O [Palbociclib] (partner 0.5 µM) , please.
Found: 0.197

Lookup: Test system NCI-H441; read-out relative viability; what value for Nc1ccn([C@@H]2O[C@H](CO)[C@@H](O)[C@@H]2O)c(=O)n1 [Cytarabine] + Cc1nc(Nc2ncc(C(=O)Nc3c(C)cccc3Cl)s2)cc(N2CCN(CCO)CC2)n1 [Dasatinib] (partner 0.075 µM) ?
Found: 0.533

Lookup: Enter reported relative viability observed with NCI-H441 for COc1cc2nccc(Oc3ccc(NC(=O)Nc4cc(C)on4)c(Cl)c3)c2cc1OC [Tivozanib] + CC1(C)CCC(c2ccc(Cl)cc2)=C(CN2CCN(c3ccc(C(=O)NS(=O)(=O)c4ccc(N[C@H](CCN5CCOCC5)CSc5ccccc5)c(S(=O)(=O)C(F)(F)F)c4)cc3)CC2)C1 [Navitoclax] (partner 0.5 µM)
Found: 0.424

Lookup: Test system NCI-H441; read-out relative viability; what value for COc1cc2nccc(Oc3ccc(NC(=O)Nc4cc(C)on4)c(Cl)c3)c2cc1OC [Tivozanib] + Nc1nc2[nH]cc(CCc3ccc(C(=O)N[C@@H](CCC(=O)O)C(=O)O)cc3)c2c(=O)[nH]1 [Pemetrexed] (partner 0.2 µM) ?
Found: 0.296

Lookup: Query for NCI-H441: what relative viability does the record show for Nc1ccn([C@@H]2O[C@H](CO)[C@@H](O)[C@@H]2O)c(=O)n1 [Cytarabine] + Cc1cc(Nc2cc(N3CCN(C)CC3)nc(Sc3ccc(NC(=O)C4CC4)cc3)n2)n[nH]1 [Tozasertib] (partner 0.1 µM) ?
Found: 0.637

Lookup: Identify the measured relative viability of COc1cc2nccc(Oc3ccc(NC(=O)Nc4cc(C)on4)c(Cl)c3)c2cc1OC [Tivozanib] + Cc1nc(NC(=O)N2CCC[C@H]2C(N)=O)sc1-c1ccnc(C(C)(C)C(F)(F)F)c1 [Alpelisib] (partner 2 µM) for NCI-H441.
Found: 0.452

Lookup: Give recorded relative viability with NCI-H441 for the following molecule: COc1cc2nccc(Oc3ccc(NC(=O)Nc4cc(C)on4)c(Cl)c3)c2cc1OC [Tivozanib] + CC(=O)c1c(C)c2cnc(Nc3ccc(N4CCNCC4)cn3)nc2n(C2CCCC2)c1=O [Palbociclib] (partner 0.5 µM)
Found: 0.262

Lookup: // fetch NCI-H441 relative viability for Nc1ccn([C@@H]2O[C@H](CO)[C@@H](O)[C@@H]2O)c(=O)n1 [Cytarabine] + N=C(N)NC(=N)NCCc1ccccc1 [Phenformin] (partner 250 µM)
Found: 0.655

Lookup: Tell me reported relative viability for COc1cc2nccc(Oc3ccc(NC(=O)Nc4cc(C)on4)c(Cl)c3)c2cc1OC [Tivozanib] + O=C(CCCCCCC(=O)Nc1ccccc1)NO [Vorinostat] (partner 1 µM) , tested with NCI-H441.
Found: 0.771

Lookup: Fill in the recorded relative viability for this molecule, with NCI-H441 as test system: COc1cc2nccc(Oc3ccc(NC(=O)Nc4cc(C)on4)c(Cl)c3)c2cc1OC [Tivozanib] + CS(=O)(=O)N1CCN(Cc2cc3nc(-c4cccc5[nH]ncc45)nc(N4CCOCC4)c3s2)CC1 [Pictilisib] (partner 1 µM)
Found: 0.511
